Target: P53A/G60N/R61K PmIleRS2 (Priestia megaterium, UniProt A0A0B6AVD3, G60N/P53A/R61K)
Sequence (A0A0B6AVD3 1-1032 P53A/G60N/R61K): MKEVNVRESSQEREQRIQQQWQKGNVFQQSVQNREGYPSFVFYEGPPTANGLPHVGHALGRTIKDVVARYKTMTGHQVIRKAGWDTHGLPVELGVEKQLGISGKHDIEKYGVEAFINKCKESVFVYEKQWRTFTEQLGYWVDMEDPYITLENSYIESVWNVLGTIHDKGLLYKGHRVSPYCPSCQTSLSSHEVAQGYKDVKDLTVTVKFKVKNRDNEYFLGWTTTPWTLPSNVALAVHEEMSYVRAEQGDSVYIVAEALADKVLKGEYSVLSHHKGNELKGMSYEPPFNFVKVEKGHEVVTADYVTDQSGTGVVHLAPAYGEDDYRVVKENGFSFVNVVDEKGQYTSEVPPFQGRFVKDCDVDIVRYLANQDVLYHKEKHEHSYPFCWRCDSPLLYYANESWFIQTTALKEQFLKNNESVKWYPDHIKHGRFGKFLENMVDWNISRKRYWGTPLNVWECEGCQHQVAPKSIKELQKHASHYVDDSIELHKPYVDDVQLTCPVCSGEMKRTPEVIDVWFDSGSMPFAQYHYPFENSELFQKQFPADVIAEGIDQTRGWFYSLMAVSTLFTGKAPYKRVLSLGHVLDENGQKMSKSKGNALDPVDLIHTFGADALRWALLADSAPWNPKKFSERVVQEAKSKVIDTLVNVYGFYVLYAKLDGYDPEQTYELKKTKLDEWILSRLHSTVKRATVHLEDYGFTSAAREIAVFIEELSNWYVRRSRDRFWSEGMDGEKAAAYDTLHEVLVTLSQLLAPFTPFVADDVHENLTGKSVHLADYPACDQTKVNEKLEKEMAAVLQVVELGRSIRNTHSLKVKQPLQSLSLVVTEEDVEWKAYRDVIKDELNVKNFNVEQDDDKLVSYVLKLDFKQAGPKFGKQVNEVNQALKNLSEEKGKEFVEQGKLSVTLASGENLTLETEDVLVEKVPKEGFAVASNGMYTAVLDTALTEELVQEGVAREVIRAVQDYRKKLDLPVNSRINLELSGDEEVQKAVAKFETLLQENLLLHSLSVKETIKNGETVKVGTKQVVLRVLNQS
Experiment: Activation step kinetics of reciprocal-residue mutants, mupirocin inhibition
Settings: peer review response Table 1, read-out: Ki (Mup)
QUANTITY KIND: Ki (µM)
Write the number in µM without appending the unit.

-- ask Tell me its Ki given C/C(=C\C(=O)OCCCCCCCCC(=O)O)C[C@@H]1OC[C@H](C[C@@H]2O[C@H]2[C@@H](C)[C@H](C)O)[C@@H](O)[C@H]1O as the entry.
-- reply 3.1

====

target: P53A/G60N/R61K/W130Q/Y126S PmIleRS2 (Priestia megaterium, UniProt A0A0B6AVD3, G60N/P53A/R61K/W130Q/Y126S); experiment: Activation step kinetics of reciprocal-residue mutants, mupirocin inhibition; details: peer review response Table 1, read-out: Ki (Mup)
QUANTITY KIND: pKi
Scale: negative log10 of molar concentration, which is what pKi denotes.

-- ask Note pKi for the compound shown: C/C(=C\C(=O)OCCCCCCCCC(=O)O)C[C@@H]1OC[C@H](C[C@@H]2O[C@H]2[C@@H](C)[C@H](C)O)[C@@H](O)[C@H]1O
-- reply 4.68

====

Target: mut-GVHH TtIleRS2 (Thermus thermophilus, UniProt P56690, G56H/H54G)
Construct: hexa-histidine tag (pET28b(+)) (N); made in house; host or cells: E. coli Rosetta2 (DE3)
Sequence (P56690 1-1043 H54G/G56H): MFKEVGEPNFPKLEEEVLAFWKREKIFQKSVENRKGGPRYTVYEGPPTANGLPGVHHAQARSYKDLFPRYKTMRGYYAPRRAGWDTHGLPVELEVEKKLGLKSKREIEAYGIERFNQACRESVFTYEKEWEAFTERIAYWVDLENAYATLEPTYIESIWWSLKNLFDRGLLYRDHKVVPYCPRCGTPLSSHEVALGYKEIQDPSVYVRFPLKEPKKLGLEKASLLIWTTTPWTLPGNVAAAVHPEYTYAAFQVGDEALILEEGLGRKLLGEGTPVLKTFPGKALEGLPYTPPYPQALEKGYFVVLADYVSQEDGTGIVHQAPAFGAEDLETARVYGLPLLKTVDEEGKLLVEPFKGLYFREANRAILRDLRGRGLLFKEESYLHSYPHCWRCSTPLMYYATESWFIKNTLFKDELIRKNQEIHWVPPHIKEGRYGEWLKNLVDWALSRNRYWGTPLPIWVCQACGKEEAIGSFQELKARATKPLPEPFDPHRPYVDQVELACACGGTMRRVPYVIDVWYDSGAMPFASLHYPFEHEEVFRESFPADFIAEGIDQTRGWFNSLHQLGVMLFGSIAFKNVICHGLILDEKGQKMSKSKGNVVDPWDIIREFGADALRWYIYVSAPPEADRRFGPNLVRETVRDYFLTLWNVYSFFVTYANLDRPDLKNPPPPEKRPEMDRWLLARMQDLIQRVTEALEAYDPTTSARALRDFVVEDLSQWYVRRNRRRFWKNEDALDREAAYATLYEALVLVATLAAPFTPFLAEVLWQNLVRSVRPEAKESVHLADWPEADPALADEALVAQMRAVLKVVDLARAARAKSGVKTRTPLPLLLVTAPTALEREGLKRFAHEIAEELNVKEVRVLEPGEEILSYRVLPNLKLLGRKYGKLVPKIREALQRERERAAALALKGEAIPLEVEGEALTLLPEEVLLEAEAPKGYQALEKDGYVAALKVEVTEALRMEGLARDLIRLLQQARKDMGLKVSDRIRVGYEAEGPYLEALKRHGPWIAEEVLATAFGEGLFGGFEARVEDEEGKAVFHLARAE
Assay: biochemical
Details: KI (MUP)Ile, amino acid activation step; ATP/PPi exchange assay; Ile varied, ATP saturating; average ± SD of three independent experiments
QUANTITY KIND: pKi
Interpret pKi as the negative base-10 log of the concentration measured in mol/L.

-- ask Tell me its pKi given C/C(=C\C(=O)OCCCCCCCCC(=O)O)C[C@@H]1OC[C@H](C[C@@H]2O[C@H]2[C@@H](C)[C@H](C)O)[C@@H](O)[C@H]1O [mupirocin] as the entry.
-- reply 4.46

====

Biological target: wt-ALHH DrIleRS2 (Deinococcus radiodurans)
Construct: hexa-histidine tag (pET28b(+)) (N); made in house; host or cells: E. coli BL21(DE3)
Sequence (Q9RUP8 whole entry): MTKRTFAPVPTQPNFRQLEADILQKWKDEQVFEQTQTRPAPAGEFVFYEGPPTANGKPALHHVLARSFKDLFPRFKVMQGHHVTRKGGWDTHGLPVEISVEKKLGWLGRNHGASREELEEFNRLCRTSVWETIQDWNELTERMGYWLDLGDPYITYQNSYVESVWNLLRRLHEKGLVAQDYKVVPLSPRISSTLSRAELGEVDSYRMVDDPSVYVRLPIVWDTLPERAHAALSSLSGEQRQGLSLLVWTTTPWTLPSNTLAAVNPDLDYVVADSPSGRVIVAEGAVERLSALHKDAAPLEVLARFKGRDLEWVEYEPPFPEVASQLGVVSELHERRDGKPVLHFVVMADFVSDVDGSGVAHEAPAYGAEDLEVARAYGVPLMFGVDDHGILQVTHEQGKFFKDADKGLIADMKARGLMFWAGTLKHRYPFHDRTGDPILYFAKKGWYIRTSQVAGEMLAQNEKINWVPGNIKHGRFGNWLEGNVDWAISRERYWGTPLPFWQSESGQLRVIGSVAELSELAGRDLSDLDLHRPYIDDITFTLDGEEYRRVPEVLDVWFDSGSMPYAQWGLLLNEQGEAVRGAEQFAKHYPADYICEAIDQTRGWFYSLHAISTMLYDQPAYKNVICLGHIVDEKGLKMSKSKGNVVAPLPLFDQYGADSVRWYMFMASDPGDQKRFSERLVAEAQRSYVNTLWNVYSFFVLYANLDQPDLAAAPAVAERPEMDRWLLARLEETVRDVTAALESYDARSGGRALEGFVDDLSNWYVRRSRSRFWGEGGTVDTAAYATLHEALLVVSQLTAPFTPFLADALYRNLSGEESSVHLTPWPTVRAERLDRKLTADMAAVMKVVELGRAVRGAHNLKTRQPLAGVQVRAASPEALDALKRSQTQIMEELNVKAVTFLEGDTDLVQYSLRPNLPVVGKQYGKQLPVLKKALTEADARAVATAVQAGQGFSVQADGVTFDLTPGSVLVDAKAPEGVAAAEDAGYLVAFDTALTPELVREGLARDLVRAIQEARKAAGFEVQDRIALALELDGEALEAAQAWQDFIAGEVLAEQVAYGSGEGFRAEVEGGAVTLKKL
Experiment: ATP-PPi exchange assay, mupirocin inhibition of amino acid activation
Assay type: biochemical
Details: amino acid activation assay; ATP as variable substrate; average ± SD of three independent experiments; read-out: KI (MUP)ATP
Protocol: L-Ile and ATP concentrations ranged from 1/10 KM to 10 KM values. When measuring the KI towards one of the substrates, the other was held in saturation (concentrations at least 10 KM). […] Visualization and quantification of the signals was performed using a Typhoon Phosphoimager 5 (General Electric) and accompanying ImageQuant™ TL software (SV: 10.2). The kinetic constants were determined using a global fit option of the competitive inhibition model of GraphPad Prism 6 software (SV: 6.01). […]
QUANTITY KIND: pKi
# pKi = -log10(concentration in molar units)

-- ask Given C/C(=C\C(=O)OCCCCCCCCC(=O)O)C[C@@H]1OC[C@H](C[C@@H]2O[C@H]2[C@@H](C)[C@H](C)O)[C@@H](O)[C@H]1O [mupirocin] , respond with its pKi.
-- reply 2.11
